# ASSAY OVERVIEW: Microsomal stability, mouse
VALUE TYPE: Microsomal Stability: % remaining after 60 minutes

In the examples that follow, each entry is paired with its recorded Microsomal Stability: % remaining after 60 minutes.
[[record]]
compound = "O=C(NC(c1cccc(OC(F)(F)F)c1)c1ccccn1)C1CCN(CCOc2ccccc2)CC1 (single isomer, unassigned) [Compound 118b]"
test_value = "m35%"

[[record]]
compound = "CN(CC1CCN(CCOc2ccc(C(F)(F)F)cc2)CC1)C(c1ccc(Cl)cc1)c1ccccn1 (stereo not drawn)"
test_value = "m1%"

[[record]]
compound = "COc1cccc(C(c2ccccn2)N(C)CC2CCN(CCOc3ccccc3F)CC2)c1 (single isomer, unassigned) [Compound 77a]"
test_value = "m1%"

[[record]]
compound = "FC(F)(F)CN(CC1CCN(CCOc2ccccc2)CC1)C(c1ccc(Cl)cc1)c1ccccn1 (stereo not drawn)"
test_value = "m12%"

[[record]]
compound = "CC1(C(=O)NC(c2ccc(Cl)cc2)c2ccccn2)CCN(CCOc2ccccc2)CC1 (single isomer, unassigned) [Compound 144a]"
test_value = "m1%"


Query: Query (compound): O=C(NC(c1ccc2c(c1)OC(F)(F)O2)c1ccccn1)C1CCN(CCOc2ccccc2F)CC1 (single isomer, unassigned) [Compound 94a] ; field requested: Microsomal Stability: % remaining after 60 minutes
Result: m2%

====

# TESTED TARGET: human D2R/β-arrestin (Homo sapiens (Human), UniProt P14416)
# Sequence (P14416 whole entry): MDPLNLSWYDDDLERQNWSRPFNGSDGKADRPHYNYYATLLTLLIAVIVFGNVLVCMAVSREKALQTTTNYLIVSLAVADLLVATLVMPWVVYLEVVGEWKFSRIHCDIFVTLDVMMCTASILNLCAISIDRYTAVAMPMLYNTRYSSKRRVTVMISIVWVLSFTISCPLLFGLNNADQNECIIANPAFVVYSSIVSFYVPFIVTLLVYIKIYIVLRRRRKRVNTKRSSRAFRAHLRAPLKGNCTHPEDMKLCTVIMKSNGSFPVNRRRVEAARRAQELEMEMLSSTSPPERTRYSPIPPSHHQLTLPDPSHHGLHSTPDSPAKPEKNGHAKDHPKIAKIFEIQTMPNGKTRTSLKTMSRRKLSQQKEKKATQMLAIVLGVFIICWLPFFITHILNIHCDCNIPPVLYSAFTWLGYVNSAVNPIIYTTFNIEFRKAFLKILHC
# ASSAY OVERVIEW: β-Arrestin agonist assay (PathHunter)
# Format: cell-based
# CONDITIONS USED: CHO-K1 cell line expressing human D2R/β-arrestin
# Method: The assays can be performed using proper detection reagents either prepared using routine methods known in the art or commercially available (e.g., PathHunter® β-Arrestin Detecting Kit (DiscoveRX)). Cells are grown to the necessary confluence and then detached. The cells are then centrifuged, washed, resuspended, and seeded into a container (e.g., 384-well plate). […] The read-out (e.g., luminescence, or fluorescence) is detected using standard equipment. […]
VALUE TYPE: EC50

Observe how each entry below is paired with its result.
[[record]]
compound = "O=C(NC(c1ccc2c(c1)OC(F)(F)O2)c1ccccn1)C1CCN(CCOc2ccccc2F)CC1 (single isomer, unassigned) [Compound 94b]"
value_type = "EC50"
test_value = "0.1 to 1 µM"

[[record]]
compound = "O=C(NC1CCN(CCOc2ccccc2)CC1)C(c1ccc(Cl)cc1)c1ccccn1 (stereo not drawn)"
value_type = "EC50"
test_value = "> 30 µM"


Now turn to the next compound.
Query: Please provide the recorded EC50 for O=C(NC(c1ccc(Cl)cc1)c1ccccn1)C1CCN(CCCCOc2ccccc2)CC1 (stereo not drawn) , tested on human D2R/β-arrestin (Homo sapiens (Human), UniProt P14416).
Result: > 30 µM

====

# TESTED TARGET: human D2R/β-arrestin (Homo sapiens (Human), UniProt P14416)
# ASSAY OVERVIEW: cell-based
# CONDITIONS USED: β-arrestin Antagonist, CHO-K1 cell line expressing human D2R/β-arrestin; quinpirole used as agonist
# maps each entry to its IC50

These solved cases illustrate the format of a correct answer.
[[record]]
compound = "CC1(C(=O)NC(c2ccc(F)cc2)c2ccccn2)CCN(CCOc2ccccc2)CC1 (single isomer, unassigned) [Compound 69b]"
test_value = "0.1 to 1 µM"

[[record]]
compound = "O=C(NC(c1ccc(Cl)cc1)c1ccccn1)C1CCN(CCCOc2ccccc2)CC1 (stereo not shown)"
test_value = "1 to 10 µM"

[[record]]
compound = "O=C(NC(c1ccc(F)cc1)c1ccccn1)C1CCN(CCOc2ccccc2)CC1 (stereo not shown)"
test_value = "1 to 10 µM"

[[record]]
compound = "CC(C)N(CC1CCN(CCOc2ccccc2F)CC1)C(c1ccc(Cl)cc1)c1ccccn1 (stereo not shown) [Compound 133]"
test_value = "< 0.1 µM"

[[record]]
compound = "O=C(NC(c1ccc(Cl)cc1)c1ccccn1)C1CCN(CC2COc3ccccc3O2)CC1 (stereo not shown)"
test_value = "1 to 10 µM"

[[record]]
compound = "CC(C1CCN(CCOc2ccccc2)CC1)N(C)C(c1ccc(Cl)cc1)c1ccccn1 (single isomer, unassigned) [Compound 97a]"
test_value = "1 to 10 µM"

[[record]]
compound = "O=C(NC(c1ccc(Cl)cc1)c1ccccn1)C1CCN(CCOc2ccc(F)cc2)CC1 (stereo not shown)"
test_value = "1 to 10 µM"

[[record]]
compound = "O=C(NC(c1ccc(F)cc1)c1ccc(F)cc1)C1CCN(CCOc2ccccc2)CC1"
test_value = "1 to 10 µM"

[[record]]
compound = "O=C(NC(c1ccc2c(c1)OC(F)(F)O2)c1ccccn1)C1CCN(CCOc2ccccc2F)CC1 (stereo not shown) [Compound 94]"
test_value = "0.1 to 1 µM"

[[record]]
compound = "O=C(NC(c1cccc(Cl)c1)c1ccccn1)C1CCN(CCOc2ccccc2)CC1 (stereo not shown)"
test_value = "0.1 to 1 µM"


Query: Looking for the measured IC50 of O=C(NC(c1ccc(Cl)cc1)c1ccccn1)C1CCN(CCOc2ccccc2OC(F)(F)F)CC1 (stereo not shown) , can you help?
Result: < 0.1 µM

Query: Any idea what its IC50 is? The compound is O=C(NC(c1ccc(Cl)cc1)c1ccccn1)C1CCN(CCOc2ccccc2)CC1 (single isomer, unassigned) [Compound 63a]
Result: 1 to 10 µM

Query: I'd like to know its IC50. The compound in question is CN(CC1(C)CCN(CCOc2ccccc2)CC1)C(c1ccc(Cl)cc1)c1ccccn1 (stereo not shown)
Result: 1 to 10 µM

Query: Bench note: what IC50 did O=C(NC(c1ccc(Cl)cc1)c1ccccn1)C1CCN(CCOC2CCCCC2)CC1 (stereo not shown) show?
Result: 1 to 10 µM
